Measurement protocol: Toxicity liver stage against HepG2, at 10uM
Assay type: cell-based
Parameters: test concentration 10 uM, cell line HepG2-A16-CD81EGFP
Condition set: human, HepG2-A16-CD81EGFP cells; read-out: INHIBITION
Measurement kind: cytotoxicity at 10 µM (%)

{"Input smiles": "CC(C)CNC(=O)CN(Cc1ccc(F)cc1)S(C)(=O)=O", "Numeric result": 10.2}
{"Input smiles": "COc1ccc(Cc2noc(C3=NN(C)C(=O)CC3)n2)cc1OC", "Numeric result": 13.3}
{"Input smiles": "CCn1ccnc1C1CCN(Cc2cccc(Cl)c2)CC1", "Numeric result": -9.45}
{"Input smiles": "CCOCCN1CCN(CCc2ccc3c(c2)CCO3)CC1", "Numeric result": 4.1}
{"Input smiles": "Cc1cc2nc(SCC(=O)N3CCOCC3)n(C(C)C)c(=O)c2[nH]1", "Numeric result": 11}
{"Input smiles": "CCCC(=O)N1CCC(c2nn(C)c(=O)n2-c2ccccc2)CC1", "Numeric result": 5.91}

* * *

Measurement protocol: Toxicity liver stage against HepG2, at 10uM
Assay type: cell-based
Design: test concentration 10 uM, cell line HepG2-A16-CD81EGFP
Condition set: human, HepG2-A16-CD81EGFP cells; read-out: INHIBITION
Measured cytotoxicity at 10 µM, listed per entry for reference.
Measurement kind: cytotoxicity at 10 µM

{"Compound": "Cc1cc(C)n(CCCN(C)C(=O)C2COc3ccccc3C2)n1 (stereo unspecified)", "Result": "-5.95%"}
{"Compound": "CCNc1ccc(-c2ccnc3c2ccn3C)nn1", "Result": "-18.1%"}
{"Compound": "CN1C(=O)CCC12CCN(Cc1ccco1)CC2", "Result": "1.61%"}
{"Compound": "Cc1occc1C(=O)N1CCC2(CCCN(Cc3nccs3)C2)C1 (stereo unspecified)", "Result": "-3.32%"}
{"Compound": "COc1c(CNC2CCOc3ccccc32)c(C)nn1C (stereo unspecified)", "Result": "4.25%"}
{"Compound": "O=C1CC(c2ccc(F)cc2)c2snc(C(=O)O)c2N1 (stereo unspecified)", "Result": "0.833%"}

* * *

Measurement protocol: Toxicity liver stage against HepG2, at 10uM
Type: cell-based
Set-up: test concentration 10 uM, cell line HepG2-A16-CD81EGFP
Condition set: human, HepG2-A16-CD81EGFP cells; read-out: INHIBITION

{"Molecule": "CCOCC1CC2(CCN(C(=O)c3ncccn3)CC2)CO1 (stereo unspecified)", "cytotoxicity at 10 µM, %": 4.93}
{"Molecule": "Cc1n[nH]c2nc(-c3ccccc3O)cc(C(=O)O)c12", "cytotoxicity at 10 µM, %": -1.55}
{"Molecule": "COc1ccc(Cc2noc(-c3ccc(NC(C)CO)nc3)n2)cc1 (stereo unspecified)", "cytotoxicity at 10 µM, %": -3.06}
{"Molecule": "COCc1cc(CC2(NCc3ccccc3Cl)COC2)no1", "cytotoxicity at 10 µM, %": -9.09}
{"Molecule": "O=C(O)c1c(-c2ccoc2)ncc2c1CCN(C1CCOC1)C2 (stereo unspecified)", "cytotoxicity at 10 µM, %": 17}
{"Molecule": "Cc1nn(C)cc1CN1CCCC(n2c(=O)oc3ccc(Cl)cc32)C1 (stereo unspecified)", "cytotoxicity at 10 µM, %": 4.88}
{"Molecule": "Cc1cc(NS(=O)(=O)c2ccc(C(=O)O)cc2F)ccc1F", "cytotoxicity at 10 µM, %": -1.96}
{"Molecule": "O=C(c1ccccn1)N1C[C@@H]2OCC(=O)N(CC3CCCCC3)[C@@H]2C1", "cytotoxicity at 10 µM, %": -2.86}
{"Molecule": "CCCS(=O)(=O)NCc1cccnc1Oc1ccc(C)c(F)c1F", "cytotoxicity at 10 µM, %": -2.19}
{"Molecule": "COc1cccc(CCC(=O)N2CCCC(c3nncn3C)C2)c1 (stereo unspecified)", "cytotoxicity at 10 µM, %": -20.1}
{"Molecule": "O=C(Nc1ccc(F)cc1)C1CNCCN1C(=O)CSc1ccncc1 (stereo unspecified)", "cytotoxicity at 10 µM, %": -0.316}
